B1: VH:VL chains; a variant is named by its letters at X, in order (parent)
chain 1: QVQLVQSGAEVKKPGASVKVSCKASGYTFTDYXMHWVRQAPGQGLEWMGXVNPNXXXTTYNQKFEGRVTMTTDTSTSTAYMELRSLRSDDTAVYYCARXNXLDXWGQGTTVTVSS
chain 2: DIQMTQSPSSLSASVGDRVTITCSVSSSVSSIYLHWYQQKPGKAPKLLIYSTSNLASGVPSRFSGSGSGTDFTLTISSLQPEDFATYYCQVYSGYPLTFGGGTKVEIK

Variants of: B1
ASSAY_COMMENT: yeast display scFab, FACS + sequencing
ASSAY_METRIC: non-specific binding call

For orientation, consider the following solved cases.
• YRTGDSGD = no binding
• FRGKGASS = binds
• FKKEGYGD = binds
• FRGRGFVA = binds
• VKGRGSVF = no binding
• FRGKGSGA = binds
• SEARSAWA = no binding
• VRTEDAWV = no binding

Below is a list of variants. For each, state its recorded non-specific binding call.
1. FTGTGSGA
2. VTAESSSF
3. SAGEGDWV
4. ATGEGDWS
5. FRRRGAVA

1. no binding
2. no binding
3. no binding
4. no binding
5. binds
